# Tested on: L1210 (1565)
# Test Protocol: Concentration to inhibit cell growth was measured on L1210:1565 cell line
# Type: functional, cell-based
# Experimental Conditions: Mus musculus
Attribute Measured: pIC50
Please keep in mind that pIC50 is minus log10 of the molar concentration; only the number is needed.

Inquiry: Query pIC50 for C#CCN(Cc1cc2c(O)nc(C)nc2cc1C)c1ccc(C(=O)NCc2cccc([N+](=O)[O-])c2)c(F)c1
Reply text: 6.74

Inquiry: Query pIC50 for C#CCN(Cc1ccc2nc(C)nc(O)c2c1)c1ccc(C(=O)NCc2nc(C)cs2)cc1
Reply text: 5.80

Inquiry: Query pIC50 for C#CCN(Cc1cc2c(O)nc(C)nc2cc1C)c1ccc(C(=O)N[C@@H](C(=O)O)C(C)(C)C)c(F)c1
Reply text: 5.28

Inquiry: Query pIC50 for C#CCN(Cc1ccc2nc(C)nc(O)c2c1)c1ccc(C(=O)NCc2ccccn2)cc1
Reply text: 5.30

Inquiry: Query pIC50 for C#CCN(Cc1cc2c(O)nc(C)nc2cc1C)c1ccc(C(=O)N[C@@H](C(=O)O)C(C)C)c(F)c1
Reply text: 5.54

Inquiry: Query pIC50 for C#CCN(Cc1ccc2nc(C)nc(O)c2c1)c1ccc(C(=O)N[C@H](CCC)C(=O)O)cc1
Reply text: 4.47

---
Inquiry: Query pIC50 for C#CCN(Cc1ccc2nc(C)nc(O)c2c1)c1ccc(C(=O)N[C@H](CCC(=O)O)C(=O)O)cc1
Reply text: 5.09

Inquiry: Query pIC50 for C#CCN(Cc1ccc2nc(C)nc(O)c2c1)c1ccc(C(=O)N[C@@H](C(=O)O)C(C)(C)C)cc1
Reply text: 4.85

Inquiry: Query pIC50 for C#CCN(Cc1cc2c(O)nc(C)nc2cc1C)c1ccc(C(=O)NCc2ccccn2)c(F)c1
Reply text: 6.28
